Provide the recorded Ratio for the entries that follow.
tested on: A549; assay: Inhibition ratio against A-549 cancer cell growth at a concentration of 10e-7 mol/L; type: functional, Homo sapiens
Give bare numbers.

Consider the reported Ratio for these compounds:
O=C1c2ccccc2C(=Cc2ccccc2)c2ccccc21
1
O=C1c2ccccc2C(=Cc2ccc(Cl)cc2)c2ccccc21
33.6
COc1cccc(C=C2c3ccccc3C(=O)c3ccccc32)c1
38.1
O=C1c2ccccc2C(=Cc2ccc(O)cc2)c2ccccc21
88.7
Cc1ccccc1C=C1c2ccccc2C(=O)c2ccccc21
0

Provide each entry's Ratio from the list below.
1. O=C1c2ccccc2C(=Cc2cccc(Cl)c2)c2ccccc21
2. Cc1cccc(C=C2c3ccccc3C(=O)c3ccccc32)c1
3. O=C1c2ccccc2C(=Cc2ccccc2Cl)c2ccccc21
4. O=C1c2ccccc2C(=Cc2cccc([N+](=O)[O-])c2)c2ccccc21
5. COc1ccc(C=C2c3ccccc3C(=O)c3ccccc32)cc1OC
6. O=C1c2ccccc2C(=Cc2ccccc2O)c2ccccc21

Data returned:
1. 5.7
2. 0
3. 6
4. 7.7
5. 90.6
6. 83

Data request: Identify the measured Ratio of COc1ccccc1C=C1c2ccccc2C(=O)c2ccccc21 for A549.
Data returned: 86.8
